Measured values drawn from patent US9029337B2 for this set.

- Tested on: human Factor 7 mRNA
- assay-info: Antisense inhibition of human Factor 7 with short (14-mer) oligonucleotides in HepB3 cells, electroporation 1,000 nM
- Format: cell-based
- settings: electroporation, 1,000 nM antisense oligonucleotide, approximately 24 hours, Factor 7 mRNA relative to untreated control cells
Strand notation (5' to 3'): a small letter for the sugar, then the base; units joined by * are phosphorothioate-linked, units joined directly phosphodiester-linked; [ ] holds rarer units or linkages, { } end groups; capitals alone tell only the bases. e = 2'-O-(2-methoxyethyl) (MOE); [5mC] = 5-methylcytosine; d = 2'-deoxy (DNA)
property-name: % Inhibition (%)
Give a bare numeral; the unit % is implied.

Reference set (5 entries):
> print(dat)
                                  substance  number
1  435676 (antisense eG*eA*dT*dT*dT*dT*dG*dT*d[5mC]*dG*dA*dA*eA*e[5mC]) [compound 435676]      11
2  435751 (antisense e[5mC]*eT*dT*dG*d[5mC]*d[5mC]*dA*dG*dG*dT*d[5mC]*d[5mC]*eT*e[5mC]) [compound 435751]      28
3  435733 (antisense e[5mC]*eT*dG*dA*dA*dT*dT*dG*dT*d[5mC]*dT*dG*eA*eA) [compound 435733]       5
4  435804 (antisense e[5mC]*eA*dG*dG*dG*dA*d[5mC]*dT*d[5mC]*dT*d[5mC]*dA*eG*e[5mC]) [compound 435804]      26
5  435654 (antisense eG*e[5mC]*d[5mC]*dG*dT*dT*d[5mC]*dT*d[5mC]*dG*dT*dT*e[5mC]*eA) [compound 435654]      71

Value of measured % Inhibition for the entry 435848 (antisense eT*eG*dG*d[5mC]*d[5mC]*dA*d[5mC]*dT*dG*d[5mC]*d[5mC]*dT*e[5mC]*eA) [compound 435848] : 32

Value of measured % Inhibition for the entry 435503 (antisense eT*eG*dT*dA*d[5mC]*dT*dG*dG*dG*dA*dG*dA*e[5mC]*e[5mC]) [compound 435503] : 17

Value of measured % Inhibition for the entry 435669 (antisense eG*eG*dA*d[5mC]*d[5mC]*dT*dG*d[5mC]*d[5mC]*dA*dT*dG*eG*eA) [compound 435669] : 36

Value of measured % Inhibition for the entry 435750 (antisense e[5mC]*eA*d[5mC]*dT*dG*d[5mC]*dA*dG*d[5mC]*d[5mC]*dA*dG*eG*eG) [compound 435750] : 14

Value of measured % Inhibition for the entry 435653 (antisense eA*eT*d[5mC]*dA*dG*d[5mC]*dT*dG*dG*dT*d[5mC]*dA*eT*e[5mC]) [compound 435653] : 32

Value of measured % Inhibition for the entry 435830 (antisense eT*eG*dA*dT*dT*dT*dT*dG*d[5mC]*dA*dA*dA*eG*eA) [compound 435830] : 0

----------
percent inhibition of Factor 7 mRNA, relative to untreated control cells for assorted substances
- Test system: human Factor 7 mRNA
- assay-info: Dose-dependent antisense inhibition of human Factor 7 in HepB3 cells, lipofectin
- Type: cell-based
- settings: 25 nM, HepB3 cells, approx. 16 hours (Table 14)
Strand notation (5' to 3'): a small letter for the sugar, then the base; units joined by * are phosphorothioate-linked, units joined directly phosphodiester-linked; [ ] holds rarer units or linkages, { } end groups; capitals alone tell only the bases. e = 2'-O-(2-methoxyethyl) (MOE); [5mC] = 5-methylcytosine; d = 2'-deoxy (DNA)
Give a bare numeral; the unit % is implied.

Reference set (4 entries):
substance	quantity-unit	number
422130 (antisense eG*e[5mC]*e[5mC]*eT*eG*dA*dG*dG*d[5mC]*d[5mC]*dA*dG*d[5mC]*dA*dG*eA*eT*e[5mC]*eA*e[5mC]) [compound 422130]	%	59
407939 (antisense eT*eG*e[5mC]*eA*eG*d[5mC]*d[5mC]*d[5mC]*dG*dG*d[5mC]*dA*d[5mC]*d[5mC]*d[5mC]*eA*eG*e[5mC]*eG*eA) [compound 407939]	%	75
422087 (antisense e[5mC]*eA*eT*eG*e[5mC]*dA*dT*dG*dG*dT*dG*dA*dT*dG*d[5mC]*eT*eT*e[5mC]*eT*eG) [compound 422087]	%	73
422294 (antisense eG*eA*dG*dT*dT*d[5mC]*dT*dG*d[5mC]*dA*dG*dG*dA*dG*d[5mC]*eG*eG*e[5mC]*e[5mC]*eT) [compound 422294]	%	61

Value of measured percent inhibition of Factor 7 mRNA, relative to untreated control cells for the entry 407935 (antisense eA*eT*eG*e[5mC]*eA*dT*dG*dG*dT*dG*dA*dT*dG*d[5mC]*dT*eT*e[5mC]*eT*eG*eA) [compound 407935] : 70

----------
% Inhibition of human Factor 7 mRNA levels for assorted substances
- Tested on: human Factor 7 mRNA
- assay-info: Antisense inhibition of human Factor 7 mRNA in HepB3 cells, 50 nM antisense oligonucleotide, lipofectin
- Type: cell-based
- settings: gapmers targeted to nucleobases 4868 to 4899 of SEQ ID NO: 1, Table 8
Strand notation (5' to 3'): a small letter for the sugar, then the base; units joined by * are phosphorothioate-linked, units joined directly phosphodiester-linked; [ ] holds rarer units or linkages, { } end groups; capitals alone tell only the bases. e = 2'-O-(2-methoxyethyl) (MOE); [5mC] = 5-methylcytosine; d = 2'-deoxy (DNA)

Reference set (4 entries):
> print(dat)
                                  substance  result
1  422302 (antisense eA*eG*dG*dA*dG*d[5mC]*d[5mC]*d[5mC]*dG*dA*dG*dT*dT*d[5mC]*dT*eG*e[5mC]*eA*eG*eG) [compound 422302]     67%
2  422297 (antisense e[5mC]*e[5mC]*d[5mC]*dG*dA*dG*dT*dT*d[5mC]*dT*dG*d[5mC]*dA*dG*dG*eA*eG*e[5mC]*eG*eG) [compound 422297]     63%
3  422224 (antisense eG*eG*eA*dG*d[5mC]*d[5mC]*d[5mC]*dG*dA*dG*dT*dT*d[5mC]*dT*dG*d[5mC]*dA*eG*eG*eA) [compound 422224]     62%
4  422143 (antisense e[5mC]*e[5mC]*eG*eA*eG*dT*dT*d[5mC]*dT*dG*d[5mC]*dA*dG*dG*dA*eG*e[5mC]*eG*eG*e[5mC]) [compound 422143]     70%

Moving on to the next substance.
Value of measured % Inhibition of human Factor 7 mRNA levels for the entry 422146 (antisense eA*eG*e[5mC]*e[5mC]*e[5mC]*dG*dA*dG*dT*dT*d[5mC]*dT*dG*d[5mC]*dA*eG*eG*eA*eG*e[5mC]) [compound 422146] : 58%

----------
- Test system: human Factor 7 mRNA
- assay-info: Antisense inhibition of human Factor 7 mRNA in HepB3 cells, 50 nM antisense oligonucleotide, lipofectin
- Format: cell-based
- settings: lipofectin, 50 nM antisense oligonucleotide, approximately 24 hours, Factor 7 mRNA by real-time RT-PCR (RTS 2927), relative to untreated control
Strand notation (5' to 3'): a small letter for the sugar, then the base; units joined by * are phosphorothioate-linked, units joined directly phosphodiester-linked; [ ] holds rarer units or linkages, { } end groups; capitals alone tell only the bases. e = 2'-O-(2-methoxyethyl) (MOE); [5mC] = 5-methylcytosine; d = 2'-deoxy (DNA)
% Inhibition for assorted substances
Give a bare numeral; the unit % is implied.

Reference set (2 entries):
substance	test-target	% Inhibition, %
407939 (antisense eT*eG*e[5mC]*eA*eG*d[5mC]*d[5mC]*d[5mC]*dG*dG*d[5mC]*dA*d[5mC]*d[5mC]*d[5mC]*eA*eG*e[5mC]*eG*eA) [compound 407939]	human Factor 7 mRNA	76
416472 (antisense e[5mC]*eA*eG*e[5mC]*e[5mC]*dT*dT*dG*dG*d[5mC]*dT*dT*dT*d[5mC]*dT*e[5mC]*eT*e[5mC]*e[5mC]*eA) [compound 416472]	human Factor 7 mRNA	76

Value of measured % Inhibition for the entry 416455 (antisense e[5mC]*eG*e[5mC]*e[5mC]*eG*dG*d[5mC]*dT*d[5mC]*dT*dG*d[5mC]*dT*d[5mC]*dA*eT*e[5mC]*e[5mC]*e[5mC]*e[5mC]) [compound 416455] : 72

Value of measured % Inhibition for the entry 416487 (antisense eG*e[5mC]*eA*eG*eG*dT*dG*d[5mC]*dT*d[5mC]*d[5mC]*d[5mC]*dA*dG*dG*eG*eT*e[5mC]*eT*e[5mC]) [compound 416487] : 39

Value of measured % Inhibition for the entry 416529 (antisense eG*eG*eG*e[5mC]*eT*dG*dA*dG*dA*d[5mC]*dT*dG*dA*dG*dG*eT*e[5mC]*eA*eG*e[5mC]) [compound 416529] : 18
